- Assay Target: fVIIa/TF (Homo sapiens, UniProt P08709)
- Construct: Single-chain fVII may be converted to two-chain fVIIa by factor Xa, factor XIIa, factor IXa, fVIIa or thrombin in vitro
- Sequence (P08709 213-466 limits assumed): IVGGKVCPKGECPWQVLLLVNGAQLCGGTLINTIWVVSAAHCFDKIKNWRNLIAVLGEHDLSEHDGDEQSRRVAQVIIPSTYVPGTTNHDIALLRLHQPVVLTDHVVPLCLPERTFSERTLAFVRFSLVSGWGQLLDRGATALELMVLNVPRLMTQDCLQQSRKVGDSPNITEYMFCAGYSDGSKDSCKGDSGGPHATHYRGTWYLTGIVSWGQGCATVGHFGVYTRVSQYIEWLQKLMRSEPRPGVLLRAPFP
- Sequence (P08709 61-212 limits assumed): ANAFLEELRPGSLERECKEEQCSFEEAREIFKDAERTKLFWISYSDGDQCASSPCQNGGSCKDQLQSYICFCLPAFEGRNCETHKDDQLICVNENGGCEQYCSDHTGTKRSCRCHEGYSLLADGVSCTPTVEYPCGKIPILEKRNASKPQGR
- Sequence (P13726 33-295 partner): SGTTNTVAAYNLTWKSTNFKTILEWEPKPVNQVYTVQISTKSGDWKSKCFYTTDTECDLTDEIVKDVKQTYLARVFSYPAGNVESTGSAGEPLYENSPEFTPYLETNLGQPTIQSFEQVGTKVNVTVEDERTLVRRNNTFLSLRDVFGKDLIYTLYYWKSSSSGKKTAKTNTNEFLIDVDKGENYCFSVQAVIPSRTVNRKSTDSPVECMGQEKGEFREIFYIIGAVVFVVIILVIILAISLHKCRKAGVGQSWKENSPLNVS
- Procedure Details: fX activation assay
- Format: biochemical
- Conditions: 100 pM fVIIa, 5 pM TF, 175 nM fX, 5-min incubation, S-2765 substrate, read-out: IC50 TF/FVII/FX
- Description: Inhibitory Compounds are Identified in a fX Activation Assay: The compounds are dissolved in DMSO and mixed with a solution of fVIIa in Ca^2 +-containing buffer (1+5). […] 50 μl of a 2-mM solution of S-2765 (fXa substrate) is then added and the fXa formed is allowed to hydrolyze the substrate for 10 minutes during which the absorbance at 405 nm is continuously monitored in a SPECTRAmax™ 340 plate reader. […]
pIC50: −log10 of the molar value.
Given measured pIC50, output TRUE if it is greater than or equal to 6 and FALSE if not.

Molecule: O=c1oc(-c2c(F)cccc2F)nc2cccc(Cl)c12 [Example 116]
Discrete Label: TRUE
//
Molecule: COC(=O)c1cccc2nc(-c3ccccc3F)oc(=O)c12 [Example 75]
Discrete Label: FALSE
//
Molecule: Cc1cccc(-c2nc3ccccc3c(=O)o2)c1 [Example 13, 2-m-Tolyl-4H-3,1-benzoxazin-4-one]
Discrete Label: TRUE
